Hey, just so you know, these numbers are from the supplement of paper PMC11246515.

- PROTOCOL_DESCRIPTION: total protein half-life in vivo (active degradation + dilution); higher = more stable protein
- RUN_CONDITIONS: wild type E. coli NCM3722; growth: P-lim chemostat; doubling time 12 h
Assignment: determine reported total protein half-life in vivo for the given sequences.
The reply should consist of the numeric value with the unit placed after it.

[ask] Find the measured total protein half-life in vivo of MNKTITALAIMMASFAANASVLPETPVPFKSGTGAIDNDTVYIGLGSAGTAWYKLDTQAKDKKWTALAAFPGGPRDQATSAFIDGNLYVFGGIGKNSEGLTQVFNDVHKYNPKTNSWVKLMSHAPMGMAGHVTFVHNGKAYVTGGVNQNIFNGYFEDLNEAGKDSTAIDKINAHYFDKKAEDYFFNKFLLSFDPSTQQWSYAGESPWYGTAGAAVVNKGDKTWLINGEAKPGLRTDAVFELDFTGNNLKWNKLAPVSSPDGVAGGFAGISNDSLIFAGGAGFKGSRENYQNGKNYAHEGLKKSYSTDIHLWHNGKWDKSGELSQGRAYGVSLPWNNSLLIIGGETAGGKAVTDSVLITVKDNKVTVQN and report it.
[reply] 13.9 h

[ask] Find the measured total protein half-life in vivo of MKILLAALTSSFMLVGCTPRIEVAAPKEPITINMNVKIEHEIIIKADKDVEELLETRSDLF and report it.
[reply] 12.9 h

[ask] Find the measured total protein half-life in vivo of MTTRQHSSFAIVFILGLLAMLMPLSIDMYLPALPVISAQFGVPAGSTQMTLSTYILGFALGQLIYGPMADSFGRKPVVLGGTLVFAAAAVACALANTIDQLIVMRFFHGLAAAAASVVINALMRDIYPKEEFSRMMSFVMLVTTIAPLMAPIVGGWVLVWLSWHYIFWILALAAILASAMIFFLIKETLPPERRQPFHIRTTIGNFAALFRHKRVLSYMLASGFSFAGMFSFLSAGPFVYIEINHVAPENFGYYFALNIVFLFVMTIFNSRFVRRIGALNMFRSGLWIQFIMAAWMVISALLGLGFWSLVVGVAAFVGCVSMVSSNAMAVILDEFPHMAGTASSLAGTFRFGIGAIVGALLSLATFNSAWPMIWSIAFCATSSILFCLYASRPKKR and report it.
[reply] 11.8 h
